Measured values drawn from paper PMC12366268 for this set.

- MEASURED ON: proliferating cell nuclear antigen (PCNA) (UniProt P12004 1-261)
- Sequence (P12004 whole entry): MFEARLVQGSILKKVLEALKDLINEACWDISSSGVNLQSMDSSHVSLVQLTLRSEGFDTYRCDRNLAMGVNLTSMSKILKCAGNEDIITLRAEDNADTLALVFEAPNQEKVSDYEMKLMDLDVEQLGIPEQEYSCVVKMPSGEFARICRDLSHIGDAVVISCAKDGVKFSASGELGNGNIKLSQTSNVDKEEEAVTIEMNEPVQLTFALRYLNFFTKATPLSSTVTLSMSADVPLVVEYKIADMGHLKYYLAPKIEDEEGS
- PROTOCOL DESCRIPTION: ITC
OBSERVATION TYPE: pKd
Note on pKd: it is the negative log10 of concentration, concentration in mol/L.

If you can, please state the reported pKd value of Ac-RKRRQTSMTDFYHSKRR-NH2 [p21_(140–156) peptide (wild-type p21 PIP-degron with flanking regions)] .
6.74

Consider next the binder Ac-KRKKQTSMTDFYHSRKK-NH2 [p21_(SWAP) peptide] in the same way.
6.69

Consider next the binder Ac-RRRRQTSMTDFYHSRRR-NH2 [p21_(All–R) peptide] in the same way.
6.86

Consider next the binder Ac-KKKKQTSMTDFYHSKKK-NH2 [p21_(All–K) peptide] in the same way.
6.46
